TESTED_TARGET: human complement factor D purified from serum (human, UniProt P00746 26-253); further: test concentration or dose not given here
Sequence (P00746 26-253): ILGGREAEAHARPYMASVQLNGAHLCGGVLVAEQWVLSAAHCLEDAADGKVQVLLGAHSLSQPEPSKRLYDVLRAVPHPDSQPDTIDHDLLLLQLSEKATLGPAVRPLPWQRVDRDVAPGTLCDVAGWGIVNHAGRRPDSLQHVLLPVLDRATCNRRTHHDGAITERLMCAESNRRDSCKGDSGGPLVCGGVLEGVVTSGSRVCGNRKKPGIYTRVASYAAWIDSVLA
PROCEDURE_DETAILS: cell-based or functional assay
EXPERIMENTAL_READOUT: CFD Enzymatic activity (% of Neg Ctrl)

Example cases with answers are listed next.
KCD208 (antibody, V domains shown, chimeric) VH: EVQLQQSVAELVRPGASVKLSCTVSGFNIKNTYMHWVKQRPEQGLEWIGRIDPANGDTTYAPKFQGKATITADTSSNSAYLHLSRLTSEDTAIYYCSLYDYDGYWGQGTTLTVSS VL: EIVLTQSPALMAASPGEKVTITCSVSSSISSSSLHWYRQKSGTSPKPWIYGTSHLASGVPVRFSGSGSGTSYSLTISSMEAEDAATYYCQQWDTYPWTFGGGTKLEIK ... 0 % of Neg Ctrl
KCD042 (antibody, V domains shown, chimeric) VH: EVQLQQSGAELVKPGASVRLSCTASGFNIKHTYIHWVSQRPEQGLEWIGKIDPANGNTKYDPKFQGKATITADTSSNTAYLQLSSLTSEDTAVYYCVNAMEYWGQGTSVTVSS VL: QSVLTQSPAIMSASPGEKVTMTCSANSSVSDMYWFQQRPGSSPRLLIYDTSNLASGVPVRFSGSGSGTSYSLTISRMEAEDAATYYCQQWSTYPWTFGGGTKLEIK ... 6.8 % of Neg Ctrl

# context switch: different binder, same CFD Enzymatic activity (% of Neg Ctrl)
query: Give reported CFD Enzymatic activity (% of Neg Ctrl) value for KCD040 (antibody, V domains shown, chimeric) VH: EVQLQQSGAELVKPGASVKLSCTASDFNIKDTYMHWVMQRPEQGLEWIGKIDPANGNTEFDPKFQGKATITADTSSNTAYLQLTSLTSEDTAVYYCTRAMDYWGQGTSVTVSS VL: QIVLTQSPAIMSASPGEKVTMTCSAGSSVSYMYWYQQKPGSSPRVLIYDTSNLASGVPVRFSGSGSGTSYSLTISRMEAEDAATYYCQQWSNYPYTFGGGTKLEIK
result: 13.7 % of Neg Ctrl
